- Test system: T-47D breast
- assay-remarks: NCI tumour cell line growth inhibition, 48 h
reported-property: TGI (µM)
Numeric answer only, unit µM assumed.

[[record]]
molecule = "O=C(CN(C1CCCCC1)C1CCCCC1)Nc1ccc(S(=O)(=O)c2ccc(NC(=O)CN(C3CCCCC3)C3CCCCC3)cc2)cc1"
unit_abbrev = "µM"
value = 3.74


Now look at this entry.
Prompt: Looking for the measured TGI of O=C(CC(c1ccccc1)N1CCCCC1)c1ccccc1 (stereo not given) , can you help?
Completion: 37.6

---

- Test system: RPMI-8226 leukemia
- assay-remarks: NCI tumour cell line growth inhibition, 48 h; in the data active = GI50 below about 0.43 µM; inactive = the rest
Entry note: the call must match one of True for active, False for inactive

[[record]]
compound = "OCCCCC#Cc1ccccc1C#Cc1cccc(O)c1"
category = "False"


Prompt: Any idea what this test logged for "COc1ccc(-c2cc(-c3cccn3C)c(C#N)c(N)n2)cc1OC" ?
Completion: False

---

- Tested on: A498 renal
- assay-remarks: NCI tumour cell line growth inhibition, 48 h
# TGI listing for each entry below
The figure you give is taken to be in µM; do not add the unit.

The following molecules have reported results that may help.
[[record]]
query_smiles = "CC(=O)Oc1ccccc1C(=O)N=C1[Se]CCN1C(=O)c1ccccc1OC(C)=O"
unit_abbrev = "µM"
value = 2.4

[[record]]
query_smiles = "O=C1NC(=O)C(c2c[nH]c3cc(Br)ccc23)=C1c1cn(C(c2ccccc2)(c2ccccc2)c2ccccc2)cn1"
unit_abbrev = "µM"
value = 37.2

[[record]]
query_smiles = "CCCS(=O)(=O)Nc1ccc(Nc2c3ccccc3nc3ccccc23)c(OC)c1"
unit_abbrev = "µM"
value = 6


Prompt: Which TGI is reported for this molecule? "O=C(O)c1ccccc1-c1ccccc1C(=O)Nc1ccc2c(c1)Cc1cc(F)ccc1-2"
Completion: 46

---

- Tested on: BT-549 breast
- assay-remarks: NCI tumour cell line growth inhibition, 48 h
The label depends only on TGI: 1.0 if it is at least 7 µM, 0.0 if it is smaller.

See these solved cases before continuing.
[[record]]
compound = "O=C(CCCN1CC=C(n2c(=O)[nH]c3ccccc32)CC1)c1ccc(F)cc1"
category = 1.0

[[record]]
compound = "Cc1[nH][nH]c(=O)c1C=Nc1ccc(-c2nc3ccccc3[nH]2)cc1"
category = 1.0

[[record]]
compound = "O=C(O)c1nc(-c2ccccn2)c(-c2ccccn2)nc1C(=O)O"
category = 1.0


Prompt: Does TGI meet or surpass 7 µM for "Clc1ccc(Cl)c(Nc2ccnc(SCc3ccccc3)n2)c1" ?
Completion: 1.0

---

- Tested on: HL-60(TB) leukemia
- assay-remarks: NCI tumour cell line growth inhibition, 48 h
// reported GI50 for each item listed

Solved cases below.
[[record]]
compound = "Cc1cc(NC(=O)c2ccc(C)c(Nc3nccc(-c4cccnc4)n3)c2)cc(-n2cnc(C)c2)c1"
value = "14.5 µM"

[[record]]
compound = "COc1ccc(-c2cc(-c3cccn3C)c(C#N)c(N)n2)cc1OC"
value = "19.6 µM"

[[record]]
compound = "CCN1C(=O)N(CC)C2C1NC(=S)N2/N=C/C=C/c1cccs1 (centres undefined)"
value = "0.281 µM"


Prompt: Recorded GI50 for "O=C(CCCN1CC=C(n2c(=O)[nH]c3ccccc32)CC1)c1ccc(F)cc1" with HL-60(TB) leukemia, please?
Completion: 24.3 µM

Prompt: Lookup: GI50 / HL-60(TB) leukemia / "Cc1[nH]n(-c2cccc(Cl)c2)c(=O)c1/C=C1\C=Nc2ccc(Br)cc21"
Completion: 4.02 µM

Prompt: Give the reported GI50 for COc1ccc(/C=c2/sc3n(c2=O)C(c2ccc(OC)c(OC)c2)C2=C(N=3)c3cc(F)ccc3OC2)cc1 (centres undefined) (system: HL-60(TB) leukemia).
Completion: 33.1 µM

Prompt: Look up GI50 with HL-60(TB) leukemia for this compound: "Cc1ccc(Nc2nc(N)c(C(=O)c3ccc(C#N)cc3)s2)cc1"
Completion: 0.288 µM

Prompt: Test system HL-60(TB) leukemia; read-out GI50; what value for "Fc1ccc(Nc2cc(-n3nnc4ccccc43)nc3ccccc23)cc1" ?
Completion: > 100 µM

Prompt: Could you share what GI50 was measured for COc1ccc(C2C(C#N)=C(N)OC3=C2COc2ccc(F)cc23)cc1OC (centres undefined) , tested on HL-60(TB) leukemia?
Completion: 34.2 µM

Provenance of the data: PubChem BioAssay (NCI)
